Target: cGAS (Homo sapiens, UniProt Q8N884)
Sequence (Q8N884 whole entry): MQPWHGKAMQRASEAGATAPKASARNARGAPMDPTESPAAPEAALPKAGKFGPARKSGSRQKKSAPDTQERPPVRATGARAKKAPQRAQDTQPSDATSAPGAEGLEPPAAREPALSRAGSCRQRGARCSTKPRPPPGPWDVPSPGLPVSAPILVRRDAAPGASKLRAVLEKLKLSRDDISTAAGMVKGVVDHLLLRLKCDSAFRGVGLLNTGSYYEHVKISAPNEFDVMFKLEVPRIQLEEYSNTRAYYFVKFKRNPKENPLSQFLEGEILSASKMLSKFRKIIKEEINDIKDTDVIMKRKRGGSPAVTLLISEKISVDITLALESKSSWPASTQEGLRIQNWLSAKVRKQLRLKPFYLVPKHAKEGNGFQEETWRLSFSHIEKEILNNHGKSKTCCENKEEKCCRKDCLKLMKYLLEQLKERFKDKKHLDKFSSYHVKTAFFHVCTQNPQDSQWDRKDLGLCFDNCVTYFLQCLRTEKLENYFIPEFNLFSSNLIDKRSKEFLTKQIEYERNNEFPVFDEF
Assay: ISD70-driven IP-10 (and IFN-β) production in THP-1 cells, ELISA
Assay type: cell-based
Parameters: endogenous in cells; host or cells: THP-1 (undifferentiated)
Settings: THP-1; 100 nM ASO overnight, then ISD70 2.5 μg/ml 7-8 h; percentage of ISD70 only
In the oligonucleotide strings, read from the 5' end, every base follows the letter of its sugar. An asterisk marks phosphorothioate; unmarked linkages are phosphodiester. Other units and linkages are bracketed, terminal groups are in braces. A string of capitals states the bases alone. d = 2'-deoxy (DNA); m = 2'-O-methyl
readout type: cGAS-100 nM: averaged IP-10 levels relative to ISD70

* mA*mG*mC*mC*mG*A*A*C*A*G*A*A*G*G*A*mG*mC*mG*mU*mC (AGCCGAACAGAAGGAGCGUC; sugars from the 5' end m5 d10 m5, all phosphorothioate, methylation of C not given here) [[LINC-PINT]587 KL] | 39.92%
* mC*mU*mC*mU*mC*T*G*G*T*C*C*C*A*T*C*mC*mC*mU*mU*mC (mC*mU*mC*mU*mC*dT*dG*dG*dT*dC*dC*dC*dA*dT*dC*mC*mC*mU*mU*mC; antisense) [[LINC-PINT]109] | 80.22%
* mG*mU*mC*mC*mC*A*G*G*C*C*T*C*C*A*G*mU*mG*mU*mC*mU (mG*mU*mC*mC*mC*dA*dG*dG*dC*dC*dT*dC*dC*dA*dG*mU*mG*mU*mC*mU; antisense) [[CDKN2B-AS1]2223] | 74.22%
* mC*mA*mU*mC*mC*C*T*T*C*T*G*C*T*G*C*mC*mA*mA*mG*mC (mC*mA*mU*mC*mC*dC*dT*dT*dC*dT*dG*dC*dT*dG*dC*mC*mA*mA*mG*mC; antisense) [[LINC-PINT]98] | 70.60%
* mG*mA*mU*mU*mA*A*A*A*C*A*G*A*T*T*A*mA*mU*mA*mC*mA (mG*mA*mU*mU*mA*dA*dA*dA*dC*dA*dG*dA*dT*dT*dA*mA*mU*mA*mC*mA) [[CDKN2B-AS1]1773] | 89.36%

FYI, the data here is from patent US20240384268A1.
